self-cleavage values, listed per item
B1: Hairpin Ribozyme (parent)
chain: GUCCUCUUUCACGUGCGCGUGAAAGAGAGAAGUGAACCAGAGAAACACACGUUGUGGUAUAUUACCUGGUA

variants of: B1; experiment: self-cleavage, relative activity (ratio to wild type); higher = more cleavage; co-transcriptional
Lab note: record the figure alone, no unit after it.

See these solved cases before continuing.
1) C46G A47C | 0.125
2) G1U G56A | 0.127

So, C16G G21U ? Its self-cleavage was 0.442
